target: Serine/threonine-protein kinase MARK2 (Homo sapiens); conditions: at 0.1 µM;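 also: mean percent inhibition of PAR-1Balpha kinase activity, reported from the GSK PKIS screen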
observation_type: inhibition (%)
Write the number in % without appending the unit.

Exercise: Could you share which inhibition value was measured for NS(=O)(=O)c1ccc(N/N=C2\C(=O)Nc3ccc(C(=O)NCCCn4ccnc4)cc32)cc1 ?
Key: 1.13

Exercise: Could you share which inhibition value was measured for COc1cc2ncn(-c3cc(OCc4ccccc4C(F)(F)F)c(C(C)=O)s3)c2cc1OC ?
Key: -0.07

Exercise: Could you share which inhibition value was measured for Fc1ccc(-c2ncn(C3CCNCC3)c2-c2ccnc(Oc3ccc(Oc4ccccc4)cc3)n2)cc1 ?
Key: 2.71

Exercise: Could you share which inhibition value was measured for CCN(CC)Cc1ccc(Nc2nccc(-c3cnn4ncccc34)n2)cc1 ?
Key: 3.28

Exercise: Could you share which inhibition value was measured for COc1cc(N2CCN(C(C)C)CC2)ccc1Nc1nc(Nc2ccc(F)cc2C(=O)NC[C@@H](O)CO)c2cc[nH]c2n1 ?
Key: 1.97

----------
target: Ephrin type-B receptor 4 (Homo sapiens); settings: at 0.1 µM;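 also: each value is a mean percent inhibition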
So I've got a bunch of compounds here, and I need their inhibition values.
Write the number in % without appending the unit.

Exercise: Could you share which inhibition value was measured for CCc1nccc2c1nc(-c1nonc1N)n2CC ?
Key: 1.19

Exercise: Could you share which inhibition value was measured for O=C1Nc2ccc(I)cc2C1=Cc1cc(Br)c(O)c(Br)c1 ?
Key: 5.1

Exercise: Could you share which inhibition value was measured for C[C@@H](Oc1cc(-n2cnc3ccc(OC4CCN(C)CC4)cc32)sc1C(N)=O)c1ccccc1Cl ?
Key: -3.06

Exercise: Could you share which inhibition value was measured for Fc1ccc(-c2ncn(C3CCNCC3)c2-c2ccnc(Oc3ccc(Oc4ccccc4)cc3)n2)cc1 ?
Key: 2.74

Exercise: Could you share which inhibition value was measured for COc1cc2ncn(-c3cc(OCc4cccs4)c(C(N)=O)s3)c2cc1OC ?
Key: -2.89

Exercise: Could you share which inhibition value was measured for c1ccc(-c2n[nH]cc2-c2ccnc(-c3ccc(OCCN4CCOCC4)cc3)c2)nc1 ?
Key: -1.67

Exercise: Could you share which inhibition value was measured for O=C(Nc1n[nH]c2nc(-c3ccco3)ccc12)C1CC1 ?
Key: 0.45

Exercise: Could you share which inhibition value was measured for COc1ccc2cc(-c3c(-c4ccncc4)nc(-c4ccc([S+](C)[O-])cc4C)n3C)ccc2c1 (stereo not given) ?
Key: 4.17

Exercise: Could you share which inhibition value was measured for CN(C)c1ccc2c(c1)/C(=C/Nc1ccc(S(N)(=O)=O)cc1)C(=O)N2 ?
Key: 2.11

Exercise: Could you share which inhibition value was measured for CCS(=O)(=O)c1ccc(OC)c(Nc2ncc(-c3cccc(-c4ccccc4F)c3)o2)c1 ?
Key: 0.78

----------
So I've got a bunch of molecules here, and I need their inhibition values.
molecular target: Discoidin domain-containing receptor 2 (Homo sapiens); settings: at 0.1 µM;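 also: reported values are mean percent inhibition of DDR2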
Write the number in % without appending the unit.

Exercise: Could you share which inhibition value was measured for COc1cc2ncn(-c3cc(OCc4cccs4)c(C(N)=O)s3)c2cc1OC ?
Key: 3.95

Exercise: Could you share which inhibition value was measured for CS(=O)(=O)CCNCc1cc(-c2cc3c(Nc4ccc(OCc5cccc(F)c5)c(Cl)c4)ncnc3s2)cs1 ?
Key: 4.67

Exercise: Could you share which inhibition value was measured for NC(=O)Cc1ccccc1Oc1nccc(-c2c(-c3ccc(F)cc3)ncn2C2CCNCC2)n1 ?
Key: 0.48

Exercise: Could you share which inhibition value was measured for CCc1ccc(Oc2nccc(-c3c(-c4ccc(F)cc4)ncn3C3CCNCC3)n2)cc1 ?
Key: 1.91

Exercise: Could you share which inhibition value was measured for COC(=O)Nc1nc2ccc(Sc3ccc(NC(=O)Nc4cc(C(F)(F)F)ccc4F)cc3)cc2[nH]1 ?
Key: 56.3

Exercise: Could you share which inhibition value was measured for COc1cc(Nc2ncc3c(C)nc(-c4cccc(Oc5ccccc5)c4)n3n2)cc(OC)c1OC ?
Key: 1.95

Exercise: Could you share which inhibition value was measured for Nc1nccc(-c2c(-c3ccc(F)cc3)ncn2C2CCC(O)CC2)n1 (stereo not given) ?
Key: -0.26

Exercise: Could you share which inhibition value was measured for O=C(Nc1n[nH]c2nc(-c3ccco3)ccc12)C1CC1 ?
Key: 5.94

Exercise: Could you share which inhibition value was measured for CN(C)c1ccc2c(c1)/C(=C/Nc1ccc(S(N)(=O)=O)cc1)C(=O)N2 ?
Key: 1.03

Exercise: Could you share which inhibition value was measured for CN(C)CCCNc1nccc(-c2c(-c3ccc(F)cc3)nn3cc(C(F)(F)F)ccc23)n1 ?
Key: 5.29
